target: human HSL (Homo sapiens, UniProt Q05469); construct: overlapping PCR to generate a full length human HSL ORF with a 3′-His6 tag; His6 (C); assay: Human Hormone-Sensitive Lipase (HSL) Enzyme Inhibition Assay; conditions: colorimetric assay, 2,3-dimercapto-1-propanol tributyrate (DMPT) substrate, 37° C. for 20 minutes, absorbance at 405 nm; read-out: HSL hum IC50
Sequence (Q05469 whole entry): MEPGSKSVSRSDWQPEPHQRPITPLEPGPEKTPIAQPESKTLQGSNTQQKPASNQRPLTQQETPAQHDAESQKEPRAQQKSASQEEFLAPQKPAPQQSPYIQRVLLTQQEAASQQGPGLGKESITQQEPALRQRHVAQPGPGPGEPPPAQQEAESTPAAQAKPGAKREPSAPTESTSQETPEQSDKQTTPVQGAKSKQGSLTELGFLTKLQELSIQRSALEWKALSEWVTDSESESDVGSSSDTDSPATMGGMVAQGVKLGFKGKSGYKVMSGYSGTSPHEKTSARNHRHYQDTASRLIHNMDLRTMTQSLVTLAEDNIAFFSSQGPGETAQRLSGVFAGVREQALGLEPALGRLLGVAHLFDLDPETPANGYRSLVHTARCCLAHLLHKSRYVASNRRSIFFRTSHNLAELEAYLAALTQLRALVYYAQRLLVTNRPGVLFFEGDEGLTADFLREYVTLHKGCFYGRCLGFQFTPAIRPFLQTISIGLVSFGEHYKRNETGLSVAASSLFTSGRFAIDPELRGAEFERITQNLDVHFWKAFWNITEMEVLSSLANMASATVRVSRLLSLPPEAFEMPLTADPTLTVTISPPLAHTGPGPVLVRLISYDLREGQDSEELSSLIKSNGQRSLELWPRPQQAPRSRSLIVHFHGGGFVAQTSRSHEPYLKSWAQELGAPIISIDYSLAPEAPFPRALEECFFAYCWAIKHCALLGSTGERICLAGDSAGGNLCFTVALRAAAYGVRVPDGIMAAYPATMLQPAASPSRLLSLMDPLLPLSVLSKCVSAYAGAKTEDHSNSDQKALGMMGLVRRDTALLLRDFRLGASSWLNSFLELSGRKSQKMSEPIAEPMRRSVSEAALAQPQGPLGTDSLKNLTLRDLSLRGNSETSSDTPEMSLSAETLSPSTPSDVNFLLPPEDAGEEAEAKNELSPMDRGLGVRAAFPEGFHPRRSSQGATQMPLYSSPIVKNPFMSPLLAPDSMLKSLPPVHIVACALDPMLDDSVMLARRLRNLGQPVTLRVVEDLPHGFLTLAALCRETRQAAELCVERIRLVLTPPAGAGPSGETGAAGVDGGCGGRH
For each record, write down the corresponding pIC50.
pIC50 is a log-scale quantity: -log10 of the concentration expressed in molar.

Q) Which pIC50 value is on record for CCC(C)c1ccc(N2CCC3(CCN(S(=O)(=O)CC(C)C)CC3)C2=O)cc1 (centres unmarked) [Example 61] ?
A) 7.15

Q) Reported pIC50, molecule O=C1N(Cc2ccc(OC(F)(F)F)cc2)CCC12CCN(S(=O)(=O)c1ccccc1Cl)CC2 [Example 49] : ____
A) 6.82

Q) Requested read-out: pIC50. Entry: CC(C)c1ccc(N2CCC3(CCN(S(=O)(=O)c4ccccc4)CC3)C2=O)cn1 [Example 10]
A) 6.89

Q) Entry CC(Oc1ccc(N2CCC3(CCN(S(=O)(=O)c4ccccc4OC(F)(F)F)CC3)C2=O)cc1)C(F)(F)F (centres unmarked) [Example 99] : reported pIC50 = ?
A) 7.52

Q) pIC50 for CCCN(CC)C(=O)N1CCC2(CC1)CCN(c1ccc(OC(F)(F)F)cc1)C2=O [Example 268] ?
A) 6.66

Q) If you can, please state the reported pIC50 value of CCc1ccc(N2CCC3(CCN(S(=O)(=O)c4ccccc4I)CC3)C2=O)cc1 [Example 74] .
A) 6.70

Q) I am curious: what pIC50 value has been reported for CC(C)CS(=O)(=O)N1CCC2(CCN(c3ccc(OCCC(F)(F)F)cc3)C2=O)CC1 [Example 102] ?
A) 6.44

Q) What does the data say about its pIC50? Entry: O=C1N(CCc2cccc(F)c2)CCC12CCN(S(=O)(=O)c1ccccc1Cl)CC2 [Example 243]
A) 7.30
